experimentalSystem: Delta-type opioid receptor (Mus musculus) (UniProt P32300)
Sequence (P32300 whole entry): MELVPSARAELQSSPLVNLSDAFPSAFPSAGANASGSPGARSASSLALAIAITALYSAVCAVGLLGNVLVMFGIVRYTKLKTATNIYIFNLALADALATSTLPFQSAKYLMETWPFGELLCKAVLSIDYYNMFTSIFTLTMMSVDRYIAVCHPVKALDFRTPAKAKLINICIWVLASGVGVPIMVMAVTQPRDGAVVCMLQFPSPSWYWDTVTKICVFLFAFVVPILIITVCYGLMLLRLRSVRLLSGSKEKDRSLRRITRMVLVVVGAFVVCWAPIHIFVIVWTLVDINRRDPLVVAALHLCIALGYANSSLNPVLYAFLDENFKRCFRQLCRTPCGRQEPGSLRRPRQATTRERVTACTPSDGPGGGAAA
procedureText: Agonist activity at delta opioid receptor in ICR mouse vas deferens assessed as inhibition of electrically-induced smooth muscle contraction at 1 uM after 3 mins
Format: functional, tissue-based
Use rule met when the recorded inhibition is no lower than 5%; use rule not met when it is lower.

[[record]]
smilesinput = "Br.NC(=O)[C@@H](Cc1ccccc1)NC(=O)[C@H](Cc1ccccc1)NC(=O)[C@@H]1C[C@H](N)CN1C(=O)[C@@H](N)Cc1ccc(O)cc1"
categorylabel = "rule met"


Lookup: Determine whether this compound has inhibition no lower than 5%: `Br.N[C@H]1C[C@@H](C(=O)N[C@H](Cc2ccccc2)C(=O)N[C@H](Cc2ccccc2)C(=O)O)N(C(=O)[C@@H](N)Cc2ccc(O)cc2)C1`
Found: rule not met

Lookup: Assess whether reported inhibition for `Br.N[C@H]1C[C@@H](C(=O)N[C@H](Cc2ccccc2)C(=O)N[C@@H](Cc2ccccc2)C(=O)O)N(C(=O)[C@@H](N)Cc2ccc(O)cc2)C1` sits at 5% or higher.
Found: rule not met

Lookup: // inclusive: inhibition at least 5%? input: `Br.N[C@H]1C[C@@H](C(=O)N[C@@H](Cc2ccccc2)C(=O)N[C@H](Cc2ccccc2)C(=O)O)N(C(=O)[C@@H](N)Cc2ccc(O)cc2)C1`
Found: rule not met

Lookup: Reported inhibition reaches at least 5% for `Br.NC(=O)[C@@H](Cc1ccccc1)NC(=O)[C@@H](Cc1ccccc1)NC(=O)[C@@H]1C[C@H](N)CN1C(=O)[C@@H](N)Cc1ccc(O)cc1` ?
Found: rule not met

Lookup: Hi team, for `Br.NC(=O)[C@H](Cc1ccccc1)NC(=O)[C@@H](Cc1ccccc1)NC(=O)[C@@H]1C[C@H](N)CN1C(=O)[C@@H](N)Cc1ccc(O)cc1` , is the recorded inhibition at or above 5%?
Found: rule met

###

Each item that follows carries a reported Ki.
experimentalSystem: Delta-type opioid receptor (Homo sapiens)
Sequence (P41143 whole entry): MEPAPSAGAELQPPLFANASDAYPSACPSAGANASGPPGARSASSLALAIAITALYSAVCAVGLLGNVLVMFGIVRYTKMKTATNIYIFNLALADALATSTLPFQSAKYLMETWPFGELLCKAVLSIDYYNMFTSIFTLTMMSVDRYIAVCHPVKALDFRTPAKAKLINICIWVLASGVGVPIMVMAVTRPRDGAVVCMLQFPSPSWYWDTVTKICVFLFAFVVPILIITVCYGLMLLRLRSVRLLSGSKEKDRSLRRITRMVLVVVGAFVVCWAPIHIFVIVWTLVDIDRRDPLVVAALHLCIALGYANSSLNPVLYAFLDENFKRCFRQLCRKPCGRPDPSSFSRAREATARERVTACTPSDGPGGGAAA
procedureText: Displacement of [3H]DPDPE from delta opioid receptor transfected in […] HN9.10 cells after 3 hrs by liquid scintillation counter
Type: cell-based
conditionDetails: read-out: Ki
Entry rule: numbers only, all in nM.

[[record]]
smilesinput = "N[C@@H](Cc1ccc(O)cc1)C(=O)N1C[C@@H]2C[C@H]1C(=O)N[C@H](Cc1ccccc1)C(=O)N[C@H](Cc1ccccc1)C(=O)N2"
measuredendpoint = "Ki"
reportedvalue = 1010


Could you now consider this next compound?
Lookup: Please give the measured Ki for this compound: `N[C@@H](Cc1ccc(O)cc1)C(=O)N1C[C@@H]2C[C@H]1C(=O)N[C@H](Cc1ccccc1)C(=O)N[C@@H](Cc1ccccc1)C(=O)N2`
Found: 860

###

experimentalSystem: Mu-type opioid receptor (Cavia porcellus)
procedureText: Agonist activity at mu opioid receptor in Hartley guinea pig ileum longitudinal muscle myenteric plexus assessed as inhibition of electrically-induced smooth muscle contraction at 1 uM after 3 mins
Type: functional, tissue-based
Some compounds, each annotated with its measured inhibition.
Write it as a number; the unit % goes unstated.

Before answering, review these 4 worked examples.
[[record]]
smilesinput = "Br.NC(=O)[C@H](Cc1ccccc1)NC(=O)[C@@H](Cc1ccccc1)NC(=O)[C@@H]1C[C@H](N)CN1C(=O)[C@@H](N)Cc1ccc(O)cc1"
reportedvalue = 12

[[record]]
smilesinput = "Br.N[C@H]1C[C@@H](C(=O)N[C@H](Cc2ccccc2)C(=O)N[C@H](Cc2ccccc2)C(=O)O)N(C(=O)[C@@H](N)Cc2ccc(O)cc2)C1"
reportedvalue = 2

[[record]]
smilesinput = "Br.N[C@H]1C[C@@H](C(=O)N[C@H](Cc2ccccc2)C(=O)N[C@@H](Cc2ccccc2)C(=O)O)N(C(=O)[C@@H](N)Cc2ccc(O)cc2)C1"
reportedvalue = 11

[[record]]
smilesinput = "Br.N[C@H]1C[C@@H](C(=O)N[C@@H](Cc2ccccc2)C(=O)N[C@H](Cc2ccccc2)C(=O)O)N(C(=O)[C@@H](N)Cc2ccc(O)cc2)C1"
reportedvalue = 3.2


Lookup: Recall the recorded inhibition for `Br.NC(=O)[C@@H](Cc1ccccc1)NC(=O)[C@@H](Cc1ccccc1)NC(=O)[C@@H]1C[C@H](N)CN1C(=O)[C@@H](N)Cc1ccc(O)cc1` with Mu-type opioid receptor (Cavia porcellus) and state it.
Found: 0.9

###

experimentalSystem: Delta-type opioid receptor (Homo sapiens)
procedureText: Displacement of [3H]DPDPE from delta opioid receptor transfected in […] HN9.10 cells after 3 hrs by liquid scintillation counter
Assay type: cell-based
measuredEndpoint: Ki

Would you please look over these solved cases?
[[record]]
smilesinput = "Br.NC(=O)[C@@H](Cc1ccccc1)NC(=O)[C@H](Cc1ccccc1)NC(=O)[C@@H]1C[C@H](N)CN1C(=O)[C@@H](N)Cc1ccc(O)cc1"
reportedvalue = "Not Active"

[[record]]
smilesinput = "Br.N[C@H]1C[C@@H](C(=O)N[C@H](Cc2ccccc2)C(=O)N[C@@H](Cc2ccccc2)C(=O)O)N(C(=O)[C@@H](N)Cc2ccc(O)cc2)C1"
reportedvalue = "Not Active"

[[record]]
smilesinput = "Br.NC(=O)[C@@H](Cc1ccccc1)NC(=O)[C@@H](Cc1ccccc1)NC(=O)[C@@H]1C[C@H](N)CN1C(=O)[C@@H](N)Cc1ccc(O)cc1"
reportedvalue = "Not Active"

[[record]]
smilesinput = "Br.N[C@H]1C[C@@H](C(=O)N[C@@H](Cc2ccccc2)C(=O)N[C@H](Cc2ccccc2)C(=O)O)N(C(=O)[C@@H](N)Cc2ccc(O)cc2)C1"
reportedvalue = "Not Active"


Next, consider the following compound.
Lookup: Item under review: `Br.NC(=O)[C@H](Cc1ccccc1)NC(=O)[C@@H](Cc1ccccc1)NC(=O)[C@@H]1C[C@H](N)CN1C(=O)[C@@H](N)Cc1ccc(O)cc1` . Reported Ki?
Found: Not Active

###

experimentalSystem: Mu-type opioid receptor (Homo sapiens, UniProt P35372)
Sequence (P35372 whole entry): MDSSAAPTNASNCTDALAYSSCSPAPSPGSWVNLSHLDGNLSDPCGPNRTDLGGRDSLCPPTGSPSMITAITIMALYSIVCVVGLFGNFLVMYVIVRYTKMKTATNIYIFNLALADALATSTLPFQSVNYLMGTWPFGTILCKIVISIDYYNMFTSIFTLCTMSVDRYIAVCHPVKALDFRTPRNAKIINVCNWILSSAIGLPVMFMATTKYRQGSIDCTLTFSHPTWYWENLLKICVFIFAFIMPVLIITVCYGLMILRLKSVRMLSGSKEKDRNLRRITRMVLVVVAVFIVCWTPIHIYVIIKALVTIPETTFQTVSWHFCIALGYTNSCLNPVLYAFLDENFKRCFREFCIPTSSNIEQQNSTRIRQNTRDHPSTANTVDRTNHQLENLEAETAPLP
procedureText: Displacement of [3H]DAMGO from mu opioid receptor transfected in […] HN9.10 cells after 3 hrs by liquid scintillation counter
// reported log10 Ki per item
Heads up, the numbers here are log10 of Ki in nM units.

[[record]]
smilesinput = "N[C@@H](Cc1ccc(O)cc1)C(=O)N1C[C@@H]2C[C@H]1C(=O)N[C@H](Cc1ccccc1)C(=O)N[C@@H](Cc1ccccc1)C(=O)N2"
experimentalsystem = "Mu-type opioid receptor (Homo sapiens, UniProt P35372)"
reportedvalue = 1.58

[[record]]
smilesinput = "Br.NC(=O)[C@@H](Cc1ccccc1)NC(=O)[C@@H](Cc1ccccc1)NC(=O)[C@@H]1C[C@H](N)CN1C(=O)[C@@H](N)Cc1ccc(O)cc1"
experimentalsystem = "Mu-type opioid receptor (Homo sapiens, UniProt P35372)"
reportedvalue = 3.57

[[record]]
smilesinput = "Br.N[C@H]1C[C@@H](C(=O)N[C@H](Cc2ccccc2)C(=O)N[C@@H](Cc2ccccc2)C(=O)O)N(C(=O)[C@@H](N)Cc2ccc(O)cc2)C1"
experimentalsystem = "Mu-type opioid receptor (Homo sapiens, UniProt P35372)"
reportedvalue = 3.00

[[record]]
smilesinput = "N[C@@H](Cc1ccc(O)cc1)C(=O)N1C[C@@H]2C[C@H]1C(=O)N[C@H](Cc1ccccc1)C(=O)N[C@H](Cc1ccccc1)C(=O)N2"
experimentalsystem = "Mu-type opioid receptor (Homo sapiens, UniProt P35372)"
reportedvalue = 1.80

[[record]]
smilesinput = "Br.NC(=O)[C@H](Cc1ccccc1)NC(=O)[C@@H](Cc1ccccc1)NC(=O)[C@@H]1C[C@H](N)CN1C(=O)[C@@H](N)Cc1ccc(O)cc1"
experimentalsystem = "Mu-type opioid receptor (Homo sapiens, UniProt P35372)"
reportedvalue = 2.88


Shift focus to the following entry.
Lookup: Can you share its log10 Ki? I mean this molecule: `Br.N[C@H]1C[C@@H](C(=O)N[C@@H](Cc2ccccc2)C(=O)N[C@H](Cc2ccccc2)C(=O)O)N(C(=O)[C@@H](N)Cc2ccc(O)cc2)C1`
Found: 2.88
